Target: Beta-galactosidase (Aspergillus niger, UniProt P29853)
Sequence (P29853 whole entry): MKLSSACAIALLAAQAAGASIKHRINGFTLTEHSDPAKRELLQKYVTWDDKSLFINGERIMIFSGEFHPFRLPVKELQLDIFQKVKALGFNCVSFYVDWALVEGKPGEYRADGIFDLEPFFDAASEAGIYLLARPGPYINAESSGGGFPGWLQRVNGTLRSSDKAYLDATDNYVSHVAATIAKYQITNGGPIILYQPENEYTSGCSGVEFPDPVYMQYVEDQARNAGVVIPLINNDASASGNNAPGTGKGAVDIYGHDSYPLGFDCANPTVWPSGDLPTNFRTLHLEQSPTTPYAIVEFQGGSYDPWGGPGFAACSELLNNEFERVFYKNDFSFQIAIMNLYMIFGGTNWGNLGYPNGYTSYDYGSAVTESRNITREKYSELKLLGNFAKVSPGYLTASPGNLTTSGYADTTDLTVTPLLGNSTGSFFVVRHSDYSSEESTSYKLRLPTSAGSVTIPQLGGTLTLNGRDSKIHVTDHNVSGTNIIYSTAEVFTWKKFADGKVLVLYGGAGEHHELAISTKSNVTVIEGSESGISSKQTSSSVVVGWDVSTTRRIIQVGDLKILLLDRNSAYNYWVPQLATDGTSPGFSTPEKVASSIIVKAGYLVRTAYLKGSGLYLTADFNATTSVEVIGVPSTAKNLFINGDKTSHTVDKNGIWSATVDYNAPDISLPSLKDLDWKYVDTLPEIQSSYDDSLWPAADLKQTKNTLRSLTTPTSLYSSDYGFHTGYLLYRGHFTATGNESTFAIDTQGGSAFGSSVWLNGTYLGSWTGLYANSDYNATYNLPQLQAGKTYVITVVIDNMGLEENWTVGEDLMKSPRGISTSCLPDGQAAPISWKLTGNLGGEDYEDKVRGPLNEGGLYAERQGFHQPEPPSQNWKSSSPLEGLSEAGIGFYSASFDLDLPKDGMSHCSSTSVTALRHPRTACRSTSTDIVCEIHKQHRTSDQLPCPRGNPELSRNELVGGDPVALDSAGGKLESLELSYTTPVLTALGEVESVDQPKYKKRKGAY
Assay: Inhibitor concentration against Beta-galactosidase from Aspergillus niger
RECORDED_METRIC: pIC50
pIC50 (log units): -log10 of the concentration in mol/L.

[Q] Assign pIC50 to the following record: CCN(CC)C(=O)c1cc([C@H]2NC[C@@H](O)[C@H]2O)oc1C
[A] 4.55

====

System: Aspergillus niger
Assay: Inhibitor concentration against Amyloglucosidases from Aspergillus niger was tested at a dose of 1 mM; NI means no inhibition
Calls of active or inactive are those of the source. No cut-off for these calls is given here.
RECORDED_METRIC: inhibition

Below, each entry is followed by its recorded inhibition result.
# MOL_SMILES, SYSTEM_NAME, inhibition
data = [
    ("Cc1oc([C@H]2NC[C@@H](O)[C@H]2O)cc1C(=O)NC(C)C", "Aspergillus niger", "inactive"),
    ("CCOC(=O)c1cc([C@H]2NC[C@@H](O)[C@H]2O)oc1C", "Aspergillus niger", "inactive"),
    ("CCN(CC)C(=O)c1cc([C@@H]2NC[C@@H](O)[C@H]2O)oc1C", "Aspergillus niger", "inactive"),
    ("CCOC(=O)c1cc([C@@H]2NC[C@@H](O)[C@H]2O)oc1C", "Aspergillus niger", "inactive"),
    ("Cc1oc([C@@H]2NC[C@@H](O)[C@H]2O)cc1C(=O)NC(C)C", "Aspergillus niger", "23%"),
]

--- query ---
[Q] Assign inhibition to the following record: CCN(CC)C(=O)c1cc([C@H]2NC[C@@H](O)[C@H]2O)oc1C
[A] inactive
